Tested on: SiHa cells
Assay: IC50 assay (inhibition of proliferation, 4 h exposure, SRB)
Settings: SiHa, pHe 7.4
Method: Cells were seeded in 96-well plates (SiHa or FaDu 1500 cells/well, UT-SCC-74B 800 cells/well) in 100 μL. After incubation for 2 h, the drugs were added in 50 μL of the same titrated medium at 3× the final concentration to duplicate the wells. […] Cultures were then grown for 5 days before staining with sulphorhodamine B and measuring absorbance, with the estimation of IC50 values using 4-parameter logistic regression, as previously carried out. […]
measured.quantity: ACR (anoxic cytotoxicity ratio = oxic IC50/anoxic IC50)

INSERT INTO results (compound, reported_measurement) VALUES
  ('O=C(O)CNc1n[n+]([O-])c2ccccc2[n+]1[O-] [Compound 8a]', '>13');

Hey, quick one: what's ACR (anoxic cytotoxicity ratio = oxic IC50/anoxic IC50) for each of these?
1. COC(=O)CCc1n[n+]([O-])c2cc3c(cc2[n+]1[O-])CCC3 [Compound 7b]
2. COC(=O)CNc1n[n+]([O-])c2cc3c(cc2[n+]1[O-])CCC3 [Compound 9b]
3. Cc1ccc2c(c1)[n+]([O-])nc(CCC(=O)O)[n+]2[O-] [Compound 5a]

>27
>6.5
>5.5

---

Tested on: FaDu cells
Experiment: IC50 assay (inhibition of proliferation, 4 h exposure, SRB)
Type: cell-based
measured.quantity: TMR (oxic IC50 pHe 7.4/anoxic IC50 pHe 6.5)

Please review the entries below; each comes with its answer.
INSERT INTO assay_data (compound, experimental_system, reported_measurement) VALUES
  ('Cc1ccc2c(c1)[n+]([O-])nc(NCCCC(=O)O)[n+]2[O-] [Compound 12a]', 'FaDu cells', '>1'),
  ('COC(=O)CNc1n[n+]([O-])c2cc3c(cc2[n+]1[O-])CCC3 [Compound 9b]', 'FaDu cells', '>1.4'),
  ('O=C(O)CCCNc1n[n+]([O-])c2ccccc2[n+]1[O-] [Compound 10a]', 'FaDu cells', '>4'),
  ('O=C(O)CNc1n[n+]([O-])c2ccccc2[n+]1[O-] [Compound 8a]', 'FaDu cells', '>6.9'),
  ('O=C(O)CCc1n[n+]([O-])c2cc3c(cc2[n+]1[O-])CCC3 [Compound 7a]', 'FaDu cells', '>7.9');

Hey, quick one: what's TMR (oxic IC50 pHe 7.4/anoxic IC50 pHe 6.5) for each of these?
1. COC(=O)CCc1n[n+]([O-])c2cc3c(cc2[n+]1[O-])CCC3 [Compound 7b]
2. Cc1ccc2c(c1)[n+]([O-])c(CCC(=O)O)n[n+]2[O-] [Compound 6a]

1. >10
2. >5

Cited source: paper PMC6680510
